Just for reference, ChEMBL document CHEMBL1201862 is where these values come from.

assay details: NIH-3T3 fibroblast cytotoxicity, dose response, cytotoxicity control, cell-based, fluorescence, Alamar Blue, secondary assay (AID 2327);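 also: NIH-3T3 mouse fibroblasts cultured with fluconazole at 8 µg/mL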
Type: functional
The source made the active and inactive calls.
Response enum: active, inactive

[Q] What classification did "O=C(O)c1ccc(NC(=S)NC(=O)c2ccc(-c3ccccc3)cc2)cc1" end up with in this test?
[A] inactive

[Q] Ok, now "O=C(N/N=C/c1ccc(O)c2ncccc12)c1cccc(Br)c1"
[A] inactive

[Q] Ok, now "CC(C)n1c(N2CCN(C(=O)Nc3ccc(Cl)cc3)CC2)nc2ccccc21"
[A] active

[Q] Ok, now "COc1cc2nc(SCc3ccc(Cl)cc3Cl)n(Cc3cccs3)c(=N)c2cc1OC"
[A] inactive

[Q] Ok, now "COc1ccccc1-n1c(C)cc(SC)c(C(C)=O)c1=S"
[A] inactive

* * *

Please provide measured EC50 for the entries that follow.
measured target: Peroxisome proliferator-activated receptor gamma/Nuclear receptor coactivator 3 (Homo sapiens, UniProt P37231)
Sequence (P37231 whole entry): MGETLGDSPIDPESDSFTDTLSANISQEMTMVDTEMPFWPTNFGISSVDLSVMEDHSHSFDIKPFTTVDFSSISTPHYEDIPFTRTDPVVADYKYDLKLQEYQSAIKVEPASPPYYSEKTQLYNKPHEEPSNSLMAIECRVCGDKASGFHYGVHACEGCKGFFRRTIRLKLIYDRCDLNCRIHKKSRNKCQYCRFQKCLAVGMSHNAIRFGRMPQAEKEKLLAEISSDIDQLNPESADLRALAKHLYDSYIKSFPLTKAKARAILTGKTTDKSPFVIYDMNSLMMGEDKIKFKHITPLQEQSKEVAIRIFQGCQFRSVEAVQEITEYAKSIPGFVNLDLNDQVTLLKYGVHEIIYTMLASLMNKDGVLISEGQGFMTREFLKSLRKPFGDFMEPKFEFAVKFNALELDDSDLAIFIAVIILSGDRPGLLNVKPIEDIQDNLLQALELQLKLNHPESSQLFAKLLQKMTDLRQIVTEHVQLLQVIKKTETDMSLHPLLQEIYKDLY
Sequence (Q9Y6Q9 whole entry, further chain): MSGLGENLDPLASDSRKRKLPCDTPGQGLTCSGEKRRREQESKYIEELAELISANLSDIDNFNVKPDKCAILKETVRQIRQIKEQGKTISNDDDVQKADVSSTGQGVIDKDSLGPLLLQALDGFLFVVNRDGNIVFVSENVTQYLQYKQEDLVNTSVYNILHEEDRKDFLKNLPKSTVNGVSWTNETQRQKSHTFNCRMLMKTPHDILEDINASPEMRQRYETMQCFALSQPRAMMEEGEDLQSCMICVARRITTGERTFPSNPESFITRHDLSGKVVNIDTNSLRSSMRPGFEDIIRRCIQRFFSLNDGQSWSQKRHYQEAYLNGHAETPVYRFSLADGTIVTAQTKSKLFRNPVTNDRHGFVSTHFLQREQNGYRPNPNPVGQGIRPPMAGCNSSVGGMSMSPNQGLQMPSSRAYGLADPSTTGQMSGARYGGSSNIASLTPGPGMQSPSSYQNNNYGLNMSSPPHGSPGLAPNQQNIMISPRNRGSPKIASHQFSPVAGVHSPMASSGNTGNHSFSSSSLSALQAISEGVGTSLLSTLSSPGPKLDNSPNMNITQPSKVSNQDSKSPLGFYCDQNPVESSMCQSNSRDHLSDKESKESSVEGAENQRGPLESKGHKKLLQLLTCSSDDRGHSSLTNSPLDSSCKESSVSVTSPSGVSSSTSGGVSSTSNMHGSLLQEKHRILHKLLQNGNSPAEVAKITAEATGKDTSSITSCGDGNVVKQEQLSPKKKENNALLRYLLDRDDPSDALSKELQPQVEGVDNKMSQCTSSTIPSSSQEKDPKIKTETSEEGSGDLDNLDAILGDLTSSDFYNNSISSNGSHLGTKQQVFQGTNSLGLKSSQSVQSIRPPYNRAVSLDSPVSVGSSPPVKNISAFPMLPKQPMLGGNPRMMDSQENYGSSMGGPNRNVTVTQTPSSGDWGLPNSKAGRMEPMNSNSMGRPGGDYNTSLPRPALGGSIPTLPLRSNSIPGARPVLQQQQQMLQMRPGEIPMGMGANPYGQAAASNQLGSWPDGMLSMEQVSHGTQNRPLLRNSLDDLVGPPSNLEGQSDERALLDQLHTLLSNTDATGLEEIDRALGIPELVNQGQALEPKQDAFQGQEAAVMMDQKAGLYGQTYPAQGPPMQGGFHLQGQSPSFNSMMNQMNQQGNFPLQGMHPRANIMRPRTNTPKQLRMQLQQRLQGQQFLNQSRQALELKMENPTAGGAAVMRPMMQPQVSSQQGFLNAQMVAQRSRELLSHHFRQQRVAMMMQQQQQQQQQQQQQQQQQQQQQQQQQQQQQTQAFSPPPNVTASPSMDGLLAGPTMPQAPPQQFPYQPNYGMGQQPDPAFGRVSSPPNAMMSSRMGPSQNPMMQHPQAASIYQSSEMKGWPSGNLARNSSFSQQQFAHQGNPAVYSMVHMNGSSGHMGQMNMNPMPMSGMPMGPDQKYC
assay details: TR-FRET dose response biochemical High Throughput Screening assay for agonists of the steroid receptor coactivator 3 (SRC-3) recruitment by the peroxisome proliferator-activated receptor gamma (PPAR gamma): non-selective agonists. [Related pubchem assays: 1301 (Confirmation screen.), 1048 (Primary screen.)]
Type: functional

[Q] Recorded EC50 for "O=C(Nc1cccnc1)c1sc(Nc2ccccc2F)nc1-c1ccccc1" , please?
[A] 28.3 µM (not active)

[Q] Ok, now "COc1ccc(-c2nc(-c3cccs3)c(-c3cccs3)[nH]2)cc1O"
[A] 79.6 µM (not active)

[Q] Ok, now "Cc1cccc(Nc2nn3c(=O)c4ccccc4nc3s2)c1"
[A] > 79.4 µM (not active)

[Q] Ok, now "NC(=O)CSc1oc(-c2cccs2)nc1S(=O)(=O)c1ccccc1"
[A] > 79.4 µM (not active)

* * *

assay details: Luminescence Cell-Based Dose Response HTS to Identify Activators of Luciferase Translation or Activity in H4 […] Cells. [Related pubchem assays: 1829 (Project Summary), 1814 (Primary HTS)]
Assay type: functional
Calls of active or inactive are those of the source.
Please provide measured EC50 for the entries that follow.

[Q] Recorded EC50 for "Cc1ccc(C(=O)c2c3ccccc3[n+]([O-])n2[C@@H](C)C(N)=O)cc1" , please?
[A] 11.2 µM (active)

[Q] Ok, now "COc1ccc2c(c1)CC/C2=N\OC(=O)c1cccc(C)c1"
[A] 0.105 µM (active)

[Q] Ok, now "Cc1ccc(C(=O)c2cnc3cc4c(cc3c2S(=O)(=O)c2ccccc2)OCCO4)cc1"
[A] 9.9 µM (active)

[Q] Ok, now "COc1cccc(/C(C)=N/N=C(\C)c2cccc(OC)c2)c1"
[A] 0.488 µM (active)

[Q] Ok, now "O=C(OCC(=O)c1cccs1)C1=COCCO1"
[A] 9.36 µM (active)

[Q] Ok, now "N=C(NOC(=O)c1cccc(F)c1)c1ccccc1"
[A] > 120 µM (not active)

* * *

measured target: Kappa-type opioid receptor (Homo sapiens)
Sequence (P41145 whole entry): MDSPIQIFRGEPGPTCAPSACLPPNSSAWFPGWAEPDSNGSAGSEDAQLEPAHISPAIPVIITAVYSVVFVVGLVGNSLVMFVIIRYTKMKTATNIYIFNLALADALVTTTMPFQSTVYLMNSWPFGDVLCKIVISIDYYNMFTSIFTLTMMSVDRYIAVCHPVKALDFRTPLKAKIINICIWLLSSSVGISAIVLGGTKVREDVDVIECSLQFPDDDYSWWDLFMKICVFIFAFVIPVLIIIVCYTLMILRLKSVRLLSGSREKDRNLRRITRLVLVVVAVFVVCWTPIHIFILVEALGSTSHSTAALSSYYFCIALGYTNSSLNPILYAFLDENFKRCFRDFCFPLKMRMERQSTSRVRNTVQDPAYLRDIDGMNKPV
Format: functional
reported endpoint: IC50 (nM)
The response must be a number in nM with no trailing unit.

[Q] Recorded IC50 for Cc1ccc(CN2C3CCCC2CC(NC(=O)c2ccc(C)cc2)C3)cc1 (stereo unspecified) , please?
[A] 824

* * *

measured target: DNA repair protein RAD52 homolog (Homo sapiens)
Sequence (P43351 whole entry): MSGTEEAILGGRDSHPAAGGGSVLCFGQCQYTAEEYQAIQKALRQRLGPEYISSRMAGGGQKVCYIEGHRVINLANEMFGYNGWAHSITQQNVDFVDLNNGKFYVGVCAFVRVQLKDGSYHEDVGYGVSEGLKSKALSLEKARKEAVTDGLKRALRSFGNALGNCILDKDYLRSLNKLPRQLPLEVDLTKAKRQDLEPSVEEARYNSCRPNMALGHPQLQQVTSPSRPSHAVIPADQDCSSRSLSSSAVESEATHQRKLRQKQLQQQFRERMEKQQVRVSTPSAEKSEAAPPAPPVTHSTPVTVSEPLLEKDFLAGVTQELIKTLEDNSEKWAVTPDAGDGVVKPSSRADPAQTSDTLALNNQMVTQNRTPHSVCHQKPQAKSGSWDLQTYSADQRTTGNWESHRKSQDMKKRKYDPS
Assay type: functional, biochemical
The source made the active and inactive calls.
Please provide measured AC50 for the entries that follow.

[Q] Recorded AC50 for "CCOC(=O)c1c(CSc2ccc(CC)cc2)oc2ccc(O)c(CN(C)C)c12" , please?
[A] 15.3 µM (active)

[Q] Ok, now "CCN(CC)CCCN(C(=O)c1cccc(C)c1)c1nc(-c2ccc(OC)cc2)cs1"
[A] 17.2 µM (active)

[Q] Ok, now "COc1cc(C)c2sc3ccccc3c(=O)c2c1NCCN(C)C"
[A] 1.07 µM (active)

[Q] Ok, now "CCCCN(CC)CCCNC(=O)c1cc2c(-c3ccc(OC)c(OC)c3)nn(C)c2s1"
[A] 3.21 µM (active)

[Q] Ok, now "Cc1ccc(-c2csc(N(CCCN(C)C)C(=O)c3ccco3)n2)cc1"
[A] 11.7 µM (active)

[Q] Ok, now "NC(=O)CN1CCN(CCN2C(=O)c3cccc4cccc(c34)C2=O)CC1"
[A] 12.1 µM (active)
